Where do these numbers come from? They come from patent US7659277B2.

Assign Selectivity (% A* in 1 μM) E2 to each entry below.
Test system: E2 protein
Assay type: biochemical
Details: % activity at 1 μM compound; control is related to 100% activity; HTS protocol
One number for each entry, in %.

Look over these answered cases.
CC(=O)Nc1ccc(-c2cc3ccccn3c2)cc1; 43
O=C1\C(=C/C=C/C=C/Nc2ccccc2)SC(=S)N1c1ccccc1; 87
CC(=C\c1ccccc1)/C=C1/SC(=N)NC1=O; 104
CC(C)Oc1ccc(/C=C2/SC(=S)NC2=O)cc1; 61
Cc1ccc(/C=N/c2ccc(Cl)cc2)o1; 96

Parameter requested: Selectivity (% A* in 1 μM) E2. Apply to each item below.
1. O=C1/C(=C\c2ccc(Cl)c([N+](=O)[O-])c2)Sc2ccccc21
2. O=C(NCc1ccc(Cl)cc1)C(=O)Nc1ccccc1
3. O=c1/c(=C/c2cccc([N+](=O)[O-])c2O)sc2nc3ccccc3n12
4. O=[N+]([O-])c1ccc(-c2ccc(/N=C/c3c(O)ccc4ccccc34)cc2)cc1
5. Cc1ccc2nc(-c3ccc(/N=C/c4ccc([N+](=O)[O-])s4)cc3)sc2c1
6. O=c1oc2cc(O)ccc2cc1-c1csc(-c2ccc(Cl)cc2)n1
7. COc1ccc(C(=O)CC2=C(O)C(=O)c3ccccc3C2=O)cc1
8. O=[N+]([O-])c1ccc(Cl)cc1CN1CCN(CCO)CC1

1. 103
2. 113
3. 113
4. 53
5. 77
6. 117
7. 70
8. 47
